target: T1, Coagulation Factor Xa, from uman plasma (human, UniProt P00742 41-179; P00742 235-488, limits assumed); assay: enzyme inhibition, pNA substrate
T1 construct: purified natural enzyme, bought; also called FXa
T1 sequence (P00742 41-179 limits assumed, chain 1 of 2): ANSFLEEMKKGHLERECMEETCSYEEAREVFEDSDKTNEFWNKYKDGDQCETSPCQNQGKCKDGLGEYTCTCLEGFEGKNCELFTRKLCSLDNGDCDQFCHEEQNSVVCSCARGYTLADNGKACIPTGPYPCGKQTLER
T1 sequence (P00742 235-488 limits assumed, chain 2 of 2): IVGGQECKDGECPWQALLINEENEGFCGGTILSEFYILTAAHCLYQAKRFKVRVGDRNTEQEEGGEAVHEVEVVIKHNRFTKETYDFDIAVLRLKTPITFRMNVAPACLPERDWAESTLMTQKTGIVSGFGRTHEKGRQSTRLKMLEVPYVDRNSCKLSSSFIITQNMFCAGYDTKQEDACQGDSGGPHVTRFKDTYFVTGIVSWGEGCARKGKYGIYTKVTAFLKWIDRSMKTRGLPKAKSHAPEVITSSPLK
Bridges are numbered along the chain shown (N, C = ends). Primed or numbered codes have the meaning given here. [ ]: non-standard residue; d: D form. Pro(4NHCOPhe)″ = 4-benzamido-L-proline, (2S)-4-benzoylamino-pyrrolidine-2-carboxylic acid; Gly(octyl) = CCCCCCCC[C@H](N)C(=O)O; Nle = CCCC[C@H](N)C(=O)O
Quantity: % inhibition at 100 µM (%)

{"Binder": "XCTASIPPQCQ (HELM PEPTIDE1{[Nle].C.T.A.S.I.P.P.Q.C.Q.[dP].P}$PEPTIDE1,PEPTIDE1,2:R3-10:R3|PEPTIDE1,PEPTIDE1,1:R1-13:R2$$$V2.0; SMILES CCCC[C@@H]1NC(=O)[C@@H]2CCCN2C(=O)[C@H]2CCCN2C(=O)[C@H](CCC(N)=O)NC(=O)[C@@H]2CSSC[C@H](NC1=O)C(=O)N[C@@H]([C@@H](C)O)C(=O)N[C@@H](C)C(=O)N[C@@H](CO)C(=O)N[C@@H]([C@@H](C)CC)C(=O)N1CCC[C@H]1C(=O)N1CCC[C@H]1C(=O)N[C@@H](CCC(N)=O)C(=O)N2, also called Ex. 91) [Example 91]", "% inhibition at 100 µM [%]": 19.4}
{"Binder": "XCTASIPPQCX (HELM PEPTIDE1{[Nle].C.T.A.S.I.P.P.Q.C.[Phg].[dP].P}$PEPTIDE1,PEPTIDE1,2:R3-10:R3|PEPTIDE1,PEPTIDE1,1:R1-13:R2$$$V2.0; SMILES CCCC[C@@H]1NC(=O)[C@@H]2CCCN2C(=O)[C@H]2CCCN2C(=O)[C@H](c2ccccc2)NC(=O)[C@@H]2CSSC[C@H](NC1=O)C(=O)N[C@@H]([C@@H](C)O)C(=O)N[C@@H](C)C(=O)N[C@@H](CO)C(=O)N[C@@H]([C@@H](C)CC)C(=O)N1CCC[C@H]1C(=O)N1CCC[C@H]1C(=O)N[C@@H](CCC(N)=O)C(=O)N2, also called Ex. 98) [Example 98]", "% inhibition at 100 µM [%]": 0}
{"Binder": "XCTASXPPQCY (HELM PEPTIDE1{[Nle].C.T.A.S.[Cha].P.P.Q.C.Y.[dP].P}$PEPTIDE1,PEPTIDE1,2:R3-10:R3|PEPTIDE1,PEPTIDE1,1:R1-13:R2$$$V2.0; SMILES CCCC[C@@H]1NC(=O)[C@@H]2CCCN2C(=O)[C@H]2CCCN2C(=O)[C@H](Cc2ccc(O)cc2)NC(=O)[C@@H]2CSSC[C@H](NC1=O)C(=O)N[C@@H]([C@@H](C)O)C(=O)N[C@@H](C)C(=O)N[C@@H](CO)C(=O)N[C@@H](CC1CCCCC1)C(=O)N1CCC[C@H]1C(=O)N1CCC[C@H]1C(=O)N[C@@H](CCC(N)=O)C(=O)N2, also called Ex. 141) [Example 141]", "% inhibition at 100 µM [%]": 15.3}

1: cyclo([Nle]CTASIP[Pro(4NHCOPhe)″]QCY[dP]P) (disulfide 2-10) [Example 138]
2: cyclo([Gly(octyl)]ETASIPPQKY[dP]P) (also called Ex. 156) [Example 156]
stdin: Returns the identifier with the smallest measured % inhibition at 100 µM among 1 and 2 . Choose, then provide that item's label.
stdout: 2
